What self-splicing fitness (ln) was measured for each of the following?
# testSummary: self-splicing fitness, log relative to wild type (ln ratio); higher = more splicing; Tetrahymena group I intron in knt gene, E. coli kanamycin selection, DiMSum; sequences stand for … in CUCUCU…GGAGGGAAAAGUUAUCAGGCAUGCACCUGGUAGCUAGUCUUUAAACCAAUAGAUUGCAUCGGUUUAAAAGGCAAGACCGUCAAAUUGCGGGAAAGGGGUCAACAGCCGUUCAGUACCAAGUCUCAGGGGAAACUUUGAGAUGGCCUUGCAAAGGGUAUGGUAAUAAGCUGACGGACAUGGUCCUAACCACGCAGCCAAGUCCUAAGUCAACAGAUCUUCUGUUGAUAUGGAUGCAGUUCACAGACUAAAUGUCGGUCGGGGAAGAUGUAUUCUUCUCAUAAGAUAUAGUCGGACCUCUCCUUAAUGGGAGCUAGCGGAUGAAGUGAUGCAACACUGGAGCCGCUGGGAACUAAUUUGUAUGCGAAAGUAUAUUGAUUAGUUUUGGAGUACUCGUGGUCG;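 note: selection with 25 µg/mL kanamycin versus none on LB agar overnight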
# protocolConditions: 37 °C
One number for each entry.

inputsequence=GUCCAGCAAUAUUACGCACU result=0.818

# map each sequence to its self-splicing fitness (ln)
1. ACAUAGCAAUAUUACGUUGC
2. AUACAGCAAUAUUACGUGGC
3. CGGCAGCAAUAUUACGCAAU
4. CUACAGCAAUAUUACGUGGU
5. CAAUAGCAAUAUUACGUGGU
6. GCACAGCAAUAUUACGUACU
7. AUACAGCAAUAUUACGCACA

-2
-2.39
-1.77
-3.03
-2.53
-1.2
0.62

Parameter requested: self-splicing fitness (ln). Apply to each item below.
1. ACGCAGCAAUAUUACGGACC
2. UCCCAGCAAUAUUACGCAUU
3. AAUUAGCAAUAUUACGACGC

1. 0.559
2. -1.58
3. -0.792

List reported self-splicing fitness (ln) for each of these sequences:
1. AAGGAGCAAUAUUACGUAUU
2. GUCGAGCAAUAUUACGAGGG
3. CAGAAGCAAUAUUACGGUGA
4. GAGAAGCAAUAUUACGCGCA
5. CCAGAGCAAUAUUACGGGGA

1. -2.34
2. -1.04
3. -1.13
4. 0.342
5. -2.61

---

# testSummary: self-splicing fitness, log relative to wild type (ln ratio); higher = more splicing; Tetrahymena group I intron in knt gene, E. coli kanamycin selection, DiMSum; sequences stand for … in CUCUCU…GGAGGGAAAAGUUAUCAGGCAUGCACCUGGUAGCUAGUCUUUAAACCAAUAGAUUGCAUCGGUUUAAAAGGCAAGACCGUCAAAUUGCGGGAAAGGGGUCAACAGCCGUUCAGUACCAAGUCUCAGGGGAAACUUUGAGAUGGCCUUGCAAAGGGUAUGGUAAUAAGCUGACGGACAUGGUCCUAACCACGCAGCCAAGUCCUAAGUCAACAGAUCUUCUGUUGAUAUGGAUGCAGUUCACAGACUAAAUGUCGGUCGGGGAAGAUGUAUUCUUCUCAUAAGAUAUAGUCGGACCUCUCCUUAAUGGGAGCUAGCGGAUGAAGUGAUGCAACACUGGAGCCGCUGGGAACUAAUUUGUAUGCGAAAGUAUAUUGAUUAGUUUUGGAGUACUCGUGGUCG
# protocolConditions: 37 °C
measuredEndpoint: self-splicing fitness (ln)
Numbers only.

Sample answers from the record:
inputsequence=CAGAAGCAAUAUUACGUUUA measuredendpoint="self-splicing fitness (ln)" result=-1.95
inputsequence=GCGUAGCAAUAUUACGUCGA measuredendpoint="self-splicing fitness (ln)" result=-1.85
inputsequence=AUGGAGCAAUAUUACGGCAG measuredendpoint="self-splicing fitness (ln)" result=-1.73

Give self-splicing fitness (ln) for each of the items listed below.
1. AAACAGCAAUAUUACGAAAU
2. GAUUAGCAAUAUUACGUAUG

[-1.48, -1.33]

Would you mind giving self-splicing fitness (ln) for every sequence in the list below?
1. GACCAGCAAUAUUACGCCCC
2. GGAAAGCAAUAUUACGCAUU
3. UGAGAGCAAUAUUACGGAUG
4. UCUAAGCAAUAUUACGCCAC

1. -0.908
2. -2.55
3. -3.56
4. -3.11

Parameter requested: self-splicing fitness (ln). Apply to each item below.
1. CGCUAGCAAUAUUACGAGCU
2. UCCAAGCAAUAUUACGCGCG
3. UUCCAGCAAUAUUACGAAUA
4. GUUGAGCAAUAUUACGGUUU
5. CGCGAGCAAUAUUACGAAUU
6. CCCUAGCAAUAUUACGAUGG
7. CCGGAGCAAUAUUACGCGGU

1. -0.7
2. -1.49
3. -0.772
4. -2.73
5. -2.03
6. -1.79
7. -2.96

---

# testSummary: self-splicing fitness, log relative to wild type (ln ratio); higher = more splicing; Tetrahymena group I intron in knt gene, E. coli kanamycin selection, DiMSum; sequences stand for … in CUCUCU…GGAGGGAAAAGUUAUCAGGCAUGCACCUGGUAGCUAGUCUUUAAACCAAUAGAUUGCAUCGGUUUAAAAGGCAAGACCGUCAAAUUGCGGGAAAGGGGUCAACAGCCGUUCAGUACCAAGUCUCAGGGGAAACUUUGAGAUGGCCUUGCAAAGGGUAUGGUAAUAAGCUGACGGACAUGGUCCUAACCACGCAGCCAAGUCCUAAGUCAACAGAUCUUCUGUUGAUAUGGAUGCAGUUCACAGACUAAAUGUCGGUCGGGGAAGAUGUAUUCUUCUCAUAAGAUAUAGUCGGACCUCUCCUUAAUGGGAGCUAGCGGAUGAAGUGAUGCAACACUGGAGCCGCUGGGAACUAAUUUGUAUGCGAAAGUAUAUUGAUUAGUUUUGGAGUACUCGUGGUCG
# protocolConditions: 30 °C
param class (str): category from self-splicing fitness (ln); see ranges bucket A (below -3), bucket B (-3 to below -2), bucket C (-2 or more)

Consider the following illustrative entries.
inputsequence=AACCAGCAAUAUUACGUUGC classification="bucket A"
inputsequence=AACAAGCAAUAUUACGGAUU classification="bucket C"
inputsequence=CCACAGCAAUAUUACGGGGA classification="bucket A"

// return the class label for AUCAAGCAAUAUUACGAUUA bucket C

Try UCGAAGCAAUAUUACGUUCA next. bucket B

---

Exercise: for every item that follows, state its recorded self-splicing fitness (ln).
# testSummary: self-splicing fitness, log relative to wild type (ln ratio); higher = more splicing; Tetrahymena group I intron in knt gene, E. coli kanamycin selection, DiMSum; sequences stand for … in CUCUCU…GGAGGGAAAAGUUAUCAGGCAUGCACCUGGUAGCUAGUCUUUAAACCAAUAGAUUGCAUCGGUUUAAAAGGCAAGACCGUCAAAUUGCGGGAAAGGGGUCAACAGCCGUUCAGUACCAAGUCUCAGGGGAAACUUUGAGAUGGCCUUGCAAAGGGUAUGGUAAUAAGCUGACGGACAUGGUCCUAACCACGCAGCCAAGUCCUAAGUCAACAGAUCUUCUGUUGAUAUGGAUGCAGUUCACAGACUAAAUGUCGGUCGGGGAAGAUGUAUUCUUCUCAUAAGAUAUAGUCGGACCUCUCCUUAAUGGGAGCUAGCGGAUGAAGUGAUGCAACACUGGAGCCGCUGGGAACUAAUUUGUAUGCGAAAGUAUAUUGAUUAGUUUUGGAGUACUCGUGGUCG
# protocolConditions: 37 °C
One number for each entry.

Please look at the items below and tell me self-splicing fitness (ln) for each one, in order.
1. UGACAGCAAUAUUACGAGAU
2. UAUCAGCAAUAUUACGCGUG
3. GGGAAGCAAUAUUACGUGUU
4. CAGAAGCAAUAUUACGUCGG
5. AGCUAGCAAUAUUACGCGGC
6. GUUCAGCAAUAUUACGCGAA

-2.86
-0.319
-1.9
-0.979
-1.99
-1.82

---

# testSummary: self-splicing fitness, log relative to wild type (ln ratio); higher = more splicing; Tetrahymena group I intron in knt gene, E. coli kanamycin selection, DiMSum; sequences stand for … in CUCUCU…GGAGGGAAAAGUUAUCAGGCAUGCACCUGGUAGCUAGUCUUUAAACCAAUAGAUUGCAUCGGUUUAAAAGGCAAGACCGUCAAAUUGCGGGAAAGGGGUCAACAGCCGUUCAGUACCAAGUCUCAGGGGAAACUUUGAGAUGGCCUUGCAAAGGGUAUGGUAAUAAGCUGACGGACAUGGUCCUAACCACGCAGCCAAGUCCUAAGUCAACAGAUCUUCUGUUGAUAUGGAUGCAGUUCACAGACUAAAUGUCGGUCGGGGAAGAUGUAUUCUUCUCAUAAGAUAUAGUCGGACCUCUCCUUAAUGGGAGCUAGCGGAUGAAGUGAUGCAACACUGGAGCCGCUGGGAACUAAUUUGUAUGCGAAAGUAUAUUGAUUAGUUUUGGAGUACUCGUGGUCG
# protocolConditions: 30 °C
measuredEndpoint: self-splicing fitness (ln)
One number for each entry.

inputsequence=UGAUAGCAAUAUUACGAUCC result=-0.554
inputsequence=AGUUAGCAAUAUUACGAAGA result=-1.18
inputsequence=GAGCAGCAAUAUUACGGGCG result=-2.09
inputsequence=CCAAAGCAAUAUUACGCUGU result=-3.89
inputsequence=GUCUAGCAAUAUUACGUCGU result=-0.819

Batch lookup, self-splicing fitness (ln) per entry.
1. AUCUAGCAAUAUUACGAUGC
2. UAUAAGCAAUAUUACGCCUA
3. UGAUAGCAAUAUUACGUUCU

1. -1.74
2. 0.213
3. -1.68

# return self-splicing fitness (ln) for each item in the list
1. GCUUAGCAAUAUUACGCGAA
2. GGUUAGCAAUAUUACGACUC

1. -2.55
2. -1.58

For each of the sequences below, note its self-splicing fitness (ln).
1. AAAUAGCAAUAUUACGUAUA
2. UGCCAGCAAUAUUACGCUAA
3. UACUAGCAAUAUUACGUGUA
4. CAAAAGCAAUAUUACGGCAC
5. AGGAAGCAAUAUUACGAGCA
6. AAUUAGCAAUAUUACGGUGG

[-1.63, -0.447, -3.12, -2.9, -1.91, -2.7]

Give one value of self-splicing fitness (ln) per listed sequence.
1. AAGCAGCAAUAUUACGGCCC
2. UAGAAGCAAUAUUACGUAGG
3. GCGCAGCAAUAUUACGGGGU
4. UGAGAGCAAUAUUACGCGUC
5. AUGCAGCAAUAUUACGAAAC
6. UCUAAGCAAUAUUACGCAAA
7. CCAUAGCAAUAUUACGGGUG

[0.22, -1.78, -2.94, -2.95, -2.82, -3.34, -1]

List reported self-splicing fitness (ln) for each of these sequences:
1. CGGAAGCAAUAUUACGCGUU
2. CAAGAGCAAUAUUACGACCG
3. UUACAGCAAUAUUACGUCGG
4. ACCCAGCAAUAUUACGUGUU
5. AUGCAGCAAUAUUACGCUUC

[-3.9, -0.953, -1.24, -1.45, -4.78]

Working through the 6 sequences below one at a time, give self-splicing fitness (ln) for each.
1. UAAGAGCAAUAUUACGAACU
2. GAAUAGCAAUAUUACGUAAA
3. CUACAGCAAUAUUACGAAAU
4. GCAUAGCAAUAUUACGAGGG
5. GAUAAGCAAUAUUACGAAAG
6. GCCGAGCAAUAUUACGAUUU

1: -2.49; 2: -1.94; 3: -3.72; 4: -3.43; 5: -2.76; 6: -2.04
